Measured protein stability index, listed per entry.
# System: Saccharomyces cerevisiae
# measurement.notes: protein stability index of tFT-peptide fusion (C-terminal peptide) (PSI (0-1 scale)); higher = more stable (slower turnover)
# experimental.conditions: genetic background: wild type; temperature: 30 C
Please give only the number in your answer, with no unit.

chain.sequence	protein stability index
AVGTYFSPVVLL	0.65
DSSDIELSTRTL	0.651

Inquiry: Can you look up the measured protein stability index of `SIFSFCSNTWFL` for me?
Reply text: 0.747

Inquiry: Can you look up the measured protein stability index of `CQPTTTCTGGNV` for me?
Reply text: 0.693

Inquiry: Can you look up the measured protein stability index of `QVHPKRPLNQSL` for me?
Reply text: 0.735

Inquiry: Can you look up the measured protein stability index of `RSSRRLAGPVSS` for me?
Reply text: 0.639

Inquiry: Can you look up the measured protein stability index of `PPPPPPPHPPHL` for me?
Reply text: 0.728

Inquiry: Can you look up the measured protein stability index of `SQLEPNNVQVTT` for me?
Reply text: 0.68

Inquiry: Can you look up the measured protein stability index of `EPGQWRAASYGF` for me?
Reply text: 0.71

Inquiry: Can you look up the measured protein stability index of `PPPNLSSGVPFI` for me?
Reply text: 0.705

Inquiry: Can you look up the measured protein stability index of `SLSHPSPPRTLP` for me?
Reply text: 0.697

Inquiry: Can you look up the measured protein stability index of `ACFLFPSHLLIS` for me?
Reply text: 0.305

Inquiry: Can you look up the measured protein stability index of `LPLSFPTLPPPP` for me?
Reply text: 0.66

* * *

# Tested on: Saccharomyces cerevisiae
# measurement.notes: protein stability index of tFT-peptide fusion in deletion strain of DAS1 (PSI (0-1 scale)); higher = more stable (slower turnover)
experimental.readout: protein stability index
Please give only the number in your answer, with no unit.

Would you please look over these solved cases?
chain.sequence	system.name	readout.value
KKHKKGQAQKIN	Saccharomyces cerevisiae	0.605
LVVYLSCVQCIN	Saccharomyces cerevisiae	0.0333
KKHKKGQLQKIN	Saccharomyces cerevisiae	0.628

Inquiry: Can you look up the measured protein stability index of `ARWRVGLWAGAS` for me?
Reply text: 0.627

Inquiry: Can you look up the measured protein stability index of `FSMRDTFRYWVN` for me?
Reply text: 0.833

* * *

# Tested on: Saccharomyces cerevisiae
# measurement.notes: protein stability index of tFT-peptide fusion (C-terminal peptide) (PSI (0-1 scale)); higher = more stable (slower turnover)
# experimental.conditions: genetic background: das1 deletion; temperature: 30 C
experimental.readout: protein stability index
Please give only the number in your answer, with no unit.

Would you please look over these solved cases?
chain.sequence	system.name	readout.value
QKTAQQKNCSIM [YNL234W C-terminal 12 aa]	Saccharomyces cerevisiae	0.746
KQSVQQQKTGNY [YHL009W-A C-terminal 12 aa]	Saccharomyces cerevisiae	0.699
LRVEWSKPKVKE [TIF35 C-terminal 12 aa]	Saccharomyces cerevisiae	0.699
PINDRKYPNQCH [SPR1 C-terminal 12 aa]	Saccharomyces cerevisiae	0.715

Inquiry: Request body: readout protein stability index, system Saccharomyces cerevisiae, query KKQESDNDANSK [CMC2 C-terminal 12 aa] . Return the value.
Reply text: 0.703

Inquiry: Request body: readout protein stability index, system Saccharomyces cerevisiae, query VMQELRKLKNAM [GLO4 C-terminal 12 aa] . Return the value.
Reply text: 0.709

* * *

Measured protein stability index, listed per entry.
# Tested on: Saccharomyces cerevisiae
# measurement.notes: protein stability index of tFT-peptide fusion (C-terminal peptide) (PSI (0-1 scale)); higher = more stable (slower turnover)
# experimental.conditions: genetic background: wild type; temperature: 30 C
Please give only the number in your answer, with no unit.

Would you please look over these solved cases?
chain.sequence	protein stability index
NPAVASPPPSSS	0.737
SKRYREKIVRNK	0.677
GGRARRGLGGPG	0.676
VRWSRMGCNWGG	0.585
PSVPLAGFVCRA	0.587
EERAGTRGGRGR	0.743
GSMVRSDSFLRP	0.66
CGRVWAENGSQG	0.689

Inquiry: Can you look up the measured protein stability index of `ILHGRSGLRELL` for me?
Reply text: 0.688

Inquiry: Can you look up the measured protein stability index of `SLRQEFDAIFVG` for me?
Reply text: 0.604

Inquiry: Can you look up the measured protein stability index of `VYLEWQFGIKEL` for me?
Reply text: 0.648

Inquiry: Can you look up the measured protein stability index of `GWEVGRGRLGVV` for me?
Reply text: 0.696

Inquiry: Can you look up the measured protein stability index of `LSPHPPITHPTP` for me?
Reply text: 0.683

Inquiry: Can you look up the measured protein stability index of `RGLLLSRRWFSP` for me?
Reply text: 0.641

Inquiry: Can you look up the measured protein stability index of `DYRCWCAILVSS` for me?
Reply text: 0.261

Inquiry: Can you look up the measured protein stability index of `ADDTFSERIHSK` for me?
Reply text: 0.7

Inquiry: Can you look up the measured protein stability index of `VGILTSVQKHSG` for me?
Reply text: 0.723

Inquiry: Can you look up the measured protein stability index of `TLSSVSEKVVHL` for me?
Reply text: 0.675

Inquiry: Can you look up the measured protein stability index of `PTATMLFLTRTG` for me?
Reply text: 0.702

* * *

# System: Saccharomyces cerevisiae
# measurement.notes: protein stability index of tFT-peptide fusion (C-terminal peptide) (PSI (0-1 scale)); higher = more stable (slower turnover)
# experimental.conditions: genetic background: wild type; temperature: 30 C
experimental.readout: protein stability index
Please give only the number in your answer, with no unit.

chain.sequence	system.name	protein stability index
PRPPPATRPGPP	Saccharomyces cerevisiae	0.688
WYVALGRFVGGS	Saccharomyces cerevisiae	0.678
RLPPGRPPPPPP	Saccharomyces cerevisiae	0.602
PTRPPAPGPGRH	Saccharomyces cerevisiae	0.744

Inquiry: Can you look up the measured protein stability index of `LVRASDPLSVTI` for me?
Reply text: 0.689

Inquiry: Can you look up the measured protein stability index of `VLGLLFLLCVFM` for me?
Reply text: 0.644

Inquiry: Can you look up the measured protein stability index of `EVFVVHLLGEAS` for me?
Reply text: 0.574

Inquiry: Can you look up the measured protein stability index of `ALSSVPPCSLPP` for me?
Reply text: 0.637

Inquiry: Can you look up the measured protein stability index of `ILVGKIEGIVQE` for me?
Reply text: 0.662

Inquiry: Can you look up the measured protein stability index of `IFLKFGLLRSLL` for me?
Reply text: 0.488

Inquiry: Can you look up the measured protein stability index of `GGGLGGAGFRGG` for me?
Reply text: 0.661

Inquiry: Can you look up the measured protein stability index of `AQIGTKINTRKT` for me?
Reply text: 0.599

Inquiry: Can you look up the measured protein stability index of `RKYEKEKYKKMI` for me?
Reply text: 0.566

Inquiry: Can you look up the measured protein stability index of `CFFMVGFVFYFV` for me?
Reply text: 0.296

Inquiry: Can you look up the measured protein stability index of `SPKGHGEGGGSK` for me?
Reply text: 0.678

Inquiry: Can you look up the measured protein stability index of `DVVVIFGILCYC` for me?
Reply text: 0.267

Inquiry: Can you look up the measured protein stability index of `PNETQTQRPATR` for me?
Reply text: 0.683

Inquiry: Can you look up the measured protein stability index of `KGVGGSTSRGGE` for me?
Reply text: 0.666

Inquiry: Can you look up the measured protein stability index of `AGARVGAPASTR` for me?
Reply text: 0.664

Inquiry: Can you look up the measured protein stability index of `LCFFLAFSFVFF` for me?
Reply text: 0.296

Inquiry: Can you look up the measured protein stability index of `VDGVSFFVVLLC` for me?
Reply text: 0.311

Inquiry: Can you look up the measured protein stability index of `GSEAGEPRAGRA` for me?
Reply text: 0.675

Inquiry: Can you look up the measured protein stability index of `PTIGTLPTVGDD` for me?
Reply text: 0.656

* * *

# Tested on: Saccharomyces cerevisiae
# measurement.notes: protein stability index of tFT-peptide fusion (C-terminal peptide) (PSI (0-1 scale)); higher = more stable (slower turnover)
# experimental.conditions: genetic background: wild type; temperature: 30 C
experimental.readout: protein stability index

Would you please look over these solved cases?
chain.sequence	experimental.readout	readout.value
TFARMYRKGSED	protein stability index	0.686
LIICRSFLCKVR	protein stability index	0.3
HASPPPDASPPL	protein stability index	0.687
FVGVRTLSRIKI	protein stability index	0.696
PPPPPPPPSSSL	protein stability index	0.682
GGVWAGEATGVQ	protein stability index	0.666
WFRGRIFLFPLV	protein stability index	0.628
SSCLPAPPPLPL	protein stability index	0.496
GAFSVPKAKNAL	protein stability index	0.699
CSRPPFLLFVSP	protein stability index	0.702

Inquiry: Can you look up the measured protein stability index of `SGPAVLPTFVSP` for me?
Reply text: 0.65

Inquiry: Can you look up the measured protein stability index of `PPPPPTFPVLTS` for me?
Reply text: 0.603

Inquiry: Can you look up the measured protein stability index of `CVSRLIPGDKHE` for me?
Reply text: 0.67

Inquiry: Can you look up the measured protein stability index of `YQKIARVSLAVS` for me?
Reply text: 0.424

Inquiry: Can you look up the measured protein stability index of `PERPPVARATRP` for me?
Reply text: 0.718

Inquiry: Can you look up the measured protein stability index of `LTYVSGIASVYG` for me?
Reply text: 0.532

Inquiry: Can you look up the measured protein stability index of `RSGQEKEKWEER` for me?
Reply text: 0.701

Inquiry: Can you look up the measured protein stability index of `PLRRRPFAPPPP` for me?
Reply text: 0.535

Inquiry: Can you look up the measured protein stability index of `PCMCKRNKQYRG` for me?
Reply text: 0.649
